biological target: CFTR channel (Homo sapiens); experiment: 125I radioactive iodide efflux in CHO-CFTR(+) cells; type: cell-based; parameters: expressed in transfected cells; host or cells: CHO (Chinese hamster ovary) cells, CHO-CFTR(+); settings: CHO-CFTR(+) cells; read-out: half-activation dose
Sequence (P13569 whole entry): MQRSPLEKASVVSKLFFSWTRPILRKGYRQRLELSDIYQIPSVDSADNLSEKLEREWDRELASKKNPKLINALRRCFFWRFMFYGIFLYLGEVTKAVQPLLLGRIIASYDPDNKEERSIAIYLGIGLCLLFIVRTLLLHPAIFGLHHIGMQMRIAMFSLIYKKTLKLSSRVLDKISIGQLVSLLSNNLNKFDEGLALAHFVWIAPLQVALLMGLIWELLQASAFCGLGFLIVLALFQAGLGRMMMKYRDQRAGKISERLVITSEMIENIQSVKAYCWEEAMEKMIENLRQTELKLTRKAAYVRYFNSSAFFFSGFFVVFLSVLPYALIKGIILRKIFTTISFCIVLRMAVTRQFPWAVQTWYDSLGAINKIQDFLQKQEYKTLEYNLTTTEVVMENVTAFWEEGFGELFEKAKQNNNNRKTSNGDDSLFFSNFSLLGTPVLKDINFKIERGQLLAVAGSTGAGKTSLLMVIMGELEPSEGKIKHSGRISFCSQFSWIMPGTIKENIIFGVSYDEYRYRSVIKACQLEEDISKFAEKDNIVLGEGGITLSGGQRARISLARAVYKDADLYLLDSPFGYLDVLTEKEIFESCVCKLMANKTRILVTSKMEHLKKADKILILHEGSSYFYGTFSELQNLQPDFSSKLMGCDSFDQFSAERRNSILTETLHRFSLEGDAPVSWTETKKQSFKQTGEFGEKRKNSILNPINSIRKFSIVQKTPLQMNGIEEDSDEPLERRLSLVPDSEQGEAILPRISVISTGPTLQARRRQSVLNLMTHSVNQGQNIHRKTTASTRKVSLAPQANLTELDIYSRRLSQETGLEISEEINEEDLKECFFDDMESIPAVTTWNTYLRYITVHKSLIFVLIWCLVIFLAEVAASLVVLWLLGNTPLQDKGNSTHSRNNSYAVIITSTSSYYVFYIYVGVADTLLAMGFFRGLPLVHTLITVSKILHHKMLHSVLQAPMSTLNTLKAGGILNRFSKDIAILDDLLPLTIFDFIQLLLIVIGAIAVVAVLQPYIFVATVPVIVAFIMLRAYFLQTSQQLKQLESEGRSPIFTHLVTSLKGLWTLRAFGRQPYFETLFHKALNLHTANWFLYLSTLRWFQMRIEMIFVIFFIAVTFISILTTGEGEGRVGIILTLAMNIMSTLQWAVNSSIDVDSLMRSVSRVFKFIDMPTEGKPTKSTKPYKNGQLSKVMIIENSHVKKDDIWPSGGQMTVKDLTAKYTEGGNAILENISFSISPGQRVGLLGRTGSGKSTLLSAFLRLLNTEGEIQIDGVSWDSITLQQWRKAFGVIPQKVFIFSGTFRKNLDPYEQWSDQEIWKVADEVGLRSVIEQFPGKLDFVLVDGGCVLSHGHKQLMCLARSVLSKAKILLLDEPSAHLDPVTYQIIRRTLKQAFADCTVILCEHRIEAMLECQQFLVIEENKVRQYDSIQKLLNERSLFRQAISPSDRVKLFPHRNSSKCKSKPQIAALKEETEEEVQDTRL
readout_type: EC50 (µM)
Write the number in µM without appending the unit.

EC50 for CCCCCCCCO is 500

----------
Molecular target: human CFTR channel endogenously expressed in Calu-3 (Homo sapiens, UniProt P13569)
Construct: human pulmonary epithelial cells endogenously expressing the CFTR channel; host or cells: Calu-3 human pulmonary epithelial cells
Sequence (P13569 whole entry): as above
Assay: iodide efflux in Calu-3 human bronchial epithelial cells
Assay type: cell-based
Settings: Calu-3 cells, in the absence of FSK; read-out: half-effect concentration (EC50)
Description: The CFTR studies are also carried out on Calu-3 cells (ATCC No. HTB-55), which are human pulmonary epithelial cells endogenously expressing the CFTR channel. These cells are cultured under the same culture conditions as the CHO cells. […] This technique makes it possible to follow the kinetics of exit of the ^125I radioactive iodide. […] All the samples are counted in a gamma counter (Kontron). The precipitated proteins are solubilized in 0.1N NaOH and quantified using a calorimetric test. […]
readout_type: EC50
For clarity, give the value followed by its unit.

EC50 for CCCCCCCCO is 1140 µM
